The measured values listed here are drawn from ChEMBL document CHEMBL1275400.

Test system: MCF7
Experiment: Antiproliferative activity against human MCF7 cells after 72 hrs by MTS assay
Type: functional, cell-based
Conditions: MCF7, 72 h
Measurement Kind: IC50 (µM)

[1] COc1cc2ncnc(N(C)c3ccc(C)c(Br)c3)c2cc1OC
[2] CCN(CC)CCN(c1ccc(C)c(Br)c1)c1ncnc2cc(OC)c(OC)cc12
[3] COc1cc2ncnc(Nc3cccc(Br)c3)c2cc1OC
Task item: Put the above molecules in order of rising IC50, beginning with the smallest. Output spec: labels arranged per the requested ranking.
Reply: 3, 2, 1

###

System: Calf thymus DNA
Assay: Binding affinity to calf thymus DNA in BPE buffer assessed as change in melting temperature at drug/DNA base pair ratio 1
Assay type: nucleic-acid assay
Settings: Bos taurus
Measurement Kind: ΔTm (°C)

Measured ΔTm of COc1cc2ncnc(N(C)c3ccc(Br)cc3)c2cc1OC : 6

The compound identified as COc1cc2ncnc(N(C)c3ccc(C)c(Br)c3)c2cc1OC registered its ΔTm at 8.4

[I] COc1cc2ncnc(N(C)c3ccc(NC(=O)Nc4ccccc4)cc3)c2cc1OC
[II] COc1cc2ncnc(N(C)c3cccc(Cl)c3)c2cc1OC
[III] COc1cc2ncnc(Nc3ccc(C(F)(F)F)cc3)c2cc1OC
[IV] COc1cc2ncnc(Oc3cccc(Br)c3)c2cc1OC
Task item: List these items ordered by ΔTm, big to small. When ranking, write the labels in the order the request describes.
Reply: II, IV, I, III

###

Test system: Calf thymus DNA
Experiment: Binding affinity to calf thymus DNA in BPE buffer assessed as change in melting temperature at drug/DNA base pair ratio 1
Format: nucleic-acid assay
Conditions: Bos taurus
Measurement Kind: ΔTm (°C)

// solved cases for ΔTm follow
ΔTm on Calf thymus DNA for COc1cc2ncnc(N(Cc3ccccc3)c3ccc(C)c(Br)c3)c2cc1OC is 6.5

Lab entry: Calf thymus DNA assay, molecule CCNC(=O)Nc1cccc(N(C)c2ncnc3cc(OC)c(OC)cc23)c1 , ΔTm = 5.2

Record for COc1cc2ncnc(Oc3cccc(NC(=O)Nc4ccccc4)c3)c2cc1OC under target or system Calf thymus DNA: ΔTm reported as 0.4

[a] CCCN(c1ccc(C)c(Br)c1)c1ncnc2cc(OC)c(OC)cc12
[b] COc1ccc(NC(=O)Nc2cccc(Oc3ncnc4cc(OC)c(OC)cc34)c2)cc1
Task item: API: POST /compare with a and b ; response names the item with higher ΔTm. Identify your selection by its label.
Reply: a
(a: 7 °C, b: 0.2 °C)

###

Tested on: Calf thymus DNA
Assay: Binding affinity to calf thymus DNA in BPE buffer assessed as change in melting temperature at drug/DNA base pair ratio 1
Assay type: nucleic-acid assay
Details: Bos taurus
Measurement Kind: ΔTm (°C)

Here's what some known entries look like.
ΔTm for CN(c1ccc(Br)cc1F)c1ncnc2cc3c(cc12)OCO3 is 3.6

ΔTm recorded for this compound, COc1cc2ncnc(Oc3ccc(NC(=O)Nc4ccccc4)cc3)c2cc1OC , is 0.4

Value of ΔTm reported for the compound COc1cc2ncnc(N(C)c3ccc(Br)cc3F)c2cc1OC is 1.4

# ΔTm (compound: COc1cc2ncnc(Nc3cccc(C)c3)c2cc1OC ) is 0.3

The compound identified as COc1cc2ncnc(Nc3ccc(Br)cc3)c2cc1OC registered its ΔTm at 3.9

Recorded result, COc1cc2ncnc(N(C)c3ccc(C)c(F)c3)c2cc1OC , ΔTm: 7.3

Query COc1cc2ncnc(Nc3ccc(C)c(C(F)(F)F)c3)c2cc1OC yields ΔTm of 0.4

Entry COc1cc2ncnc(Nc3cccc(Br)c3)c2cc1OC — recorded ΔTm = 0.2

[P] Fc1cc(Br)ccc1Nc1ncnc2cc3c(cc12)OCO3
[Q] CCN(c1ccc(C)c(Br)c1)c1ncnc2cc(OC)c(OC)cc12
[R] COc1cc2ncnc(N(c3ccc(C)c(Br)c3)C(C)C)c2cc1OC
[S] COc1cc2ncnc(Oc3ccc(Br)cc3F)c2cc1OC
Task item: Order the records so the highest ΔTm appears first and the lowest last. Sort the labels as requested; that list is your answer.
Reply: Q, R, S, P

###

Tested on: Calf thymus DNA
Assay: Binding affinity to calf thymus DNA in BPE buffer assessed as change in melting temperature at drug/DNA base pair ratio 1
Type: nucleic-acid assay
Details: Bos taurus
Measurement Kind: ΔTm (°C)

Before answering, review these 3 worked examples.
In plain terms, COc1cc2ncnc(N(C)c3ccc(C(F)(F)F)cc3)c2cc1OC has a documented ΔTm of 6.5

The molecule identified as COc1cc2ncnc(Nc3ccc(C)c(Br)c3)c2cc1OC registered its ΔTm at 0.2

COc1cc2ncnc(Nc3ccc(F)c(Cl)c3)c2cc1OC yielded ΔTm of 0.2

[A] COc1cc2ncnc(N(CCN3CCCCC3)c3ccc(C)c(Br)c3)c2cc1OC
[B] CCCCNC(=O)Nc1cccc(N(C)c2ncnc3cc(OC)c(OC)cc23)c1
[C] COc1cc2ncnc(Nc3cccc(C(F)(F)F)c3)c2cc1OC
Task item: List from greatest to least ΔTm. Output spec: a listing of the labels in the requested order.
Reply: A, B, C

[P] COc1cc2ncnc(N(CCN(C)C)c3ccc(C)c(Br)c3)c2cc1OC
[Q] CCCCNC(=O)Nc1ccc(N(C)c2ncnc3cc(OC)c(OC)cc23)cc1
[R] COc1cc2ncnc(Nc3ccc(Br)cc3F)c2cc1OC
[S] COc1cc2ncnc(Oc3ccc(F)c(Cl)c3)c2cc1OC
Task item: Give the ascending ranking of the items by reported ΔTm. Rank them, then answer with their labels in that order.
Reply: R, Q, S, P
(R: 0.1 °C, Q: 0.3 °C, S: 1.2 °C, P: 9.9 °C)

[I] COc1cc2ncnc(N(C)c3cccc(NC(=O)Nc4ccc(F)c(Cl)c4)c3)c2cc1OC
[II] COc1cc2ncnc(Nc3cccc(Cl)c3)c2cc1OC
Task item: Would you kindly point out which of I and II has the smaller ΔTm figure? Output the label that corresponds to your choice.
Reply: II

[a] COc1cc2ncnc(N(C)c3cccc(C(F)(F)F)c3)c2cc1OC
[b] CCN(CC)CCN(c1ccc(C)c(Br)c1)c1ncnc2cc(OC)c(OC)cc12
[c] COc1cc2ncnc(Nc3ccc(C)c(Cl)c3)c2cc1OC
[d] CN(c1ccc(F)c(Cl)c1)c1ncnc2cc3c(cc12)OCO3
Task item: Endpoint returns the given molecules ordered by ascending ΔTm. // list labels; follow requested order
Reply: c, d, a, b

[A] COc1cc2ncnc(N(C)c3ccc(C)c(C(F)(F)F)c3)c2cc1OC
[B] COc1ccc(NC(=O)Nc2ccc(Oc3ncnc4cc(OC)c(OC)cc34)cc2)cc1
Task item: Smaller ΔTm value? Options are A and B State the label of the item chosen.
Reply: B
(B: 0.3 °C, A: 7.8 °C)

###

Test system: Nucleic Acid
Test: Binding affinity to poly(dA-dT)2 in BPE buffer assessed as change in melting temperature at drug/DNA base pair ratio 1
Format: nucleic-acid assay
Measurement Kind: ΔTm (°C)

Given item COc1cc2ncnc(Nc3cccc(Cl)c3)c2cc1OC , the value recorded as its ΔTm is 0.3

[1] COc1cc2ncnc(Nc3ccc(C)c(Cl)c3)c2cc1OC
[2] COc1cc2ncnc(N(Cc3ccccc3)c3ccc(C)c(Br)c3)c2cc1OC
Task item: Lab notebook, comparison: 1 versus 2 , higher ΔTm goes to which? Which one? Tell me its label.
Reply: 2
(2: 9.6 °C, 1: 0.4 °C)

[a] COc1cc2ncnc(Oc3ccc(F)c(Cl)c3)c2cc1OC
[b] COc1cc2ncnc(N(C)c3ccc(C(F)(F)F)cc3)c2cc1OC
Task item: I'd appreciate it if you could identify which of a and b has the greater ΔTm. Lab note: record the label of whichever item you select.
Reply: b
(b: 9.1 °C, a: 0.5 °C)

###

Test system: Nucleic Acid
Assay: Binding affinity to poly(dA-dT)2 in BPE buffer assessed as change in melting temperature at drug/DNA base pair ratio 1
Assay type: nucleic-acid assay
Measurement Kind: ΔTm (°C)

Short answer for COc1cc2ncnc(Nc3ccc(F)c(Cl)c3)c2cc1OC : ΔTm was 0.4

The compound listed as COc1cc2ncnc(Nc3ccc(C)c(Br)c3)c2cc1OC shows ΔTm equal to 0.4

Consider COc1cc2ncnc(N(C)c3cccc(C)c3)c2cc1OC . Its measured ΔTm is 9.7

Memo: CN(c1ccc(Br)cc1F)c1ncnc2cc3c(cc12)OCO3 , reported ΔTm: 4.2

Lookup result for COc1cc2ncnc(Nc3ccc(C(F)(F)F)cc3)c2cc1OC ; measured ΔTm: 0.5

ΔTm recorded for this compound, COc1cc2ncnc(Oc3cccc(Br)c3)c2cc1OC , is 0.7

// COc1cc2ncnc(N(CCN(C)C)c3ccc(C)c(Br)c3)c2cc1OC : ΔTm value = 20

// field: ΔTm; key: COc1cc2ncnc(N(CCN3CCCCC3)c3ccc(C)c(Br)c3)c2cc1OC ; value = 27.7

[A] COc1cc2ncnc(N(C)c3cccc(NC(=O)Nc4ccc(F)c(Cl)c4)c3)c2cc1OC
[B] COc1cc2ncnc(Nc3ccc(Br)cc3F)c2cc1OC
Task item: Higher ΔTm: A or B ? Your answer should be the label of the entry you select.
Reply: A
(A: 10.5 °C, B: 0.3 °C)

[1] CCCCNC(=O)Nc1cccc(N(C)c2ncnc3cc(OC)c(OC)cc23)c1
[2] COc1cc2ncnc(N(C)c3cccc(Br)c3)c2cc1OC
Task item: I would appreciate it if you could say which entry, 1 or 2 , has the lower ΔTm value. Let me know the label of the one you choose.
Reply: 1
(1: 8.1 °C, 2: 12.2 °C)

[I] COc1cc2ncnc(N(C)c3cccc(NC(=O)NC4CCCCC4)c3)c2cc1OC
[II] COc1cc2ncnc(Nc3ccc(Br)cc3)c2cc1OC
Task item: I or II : whose ΔTm is greater? Use the label to indicate which entry you chose.
Reply: I
(I: 9.7 °C, II: 0.2 °C)

[A] COc1cc2ncnc(N(C)c3ccc(C)c(F)c3)c2cc1OC
[B] COc1cc2ncnc(Nc3cccc(C(F)(F)F)c3)c2cc1OC
[C] CCNC(=O)Nc1cccc(N(C)c2ncnc3cc(OC)c(OC)cc23)c1
[D] COc1cc2ncnc(N(C)c3ccc(Br)cc3F)c2cc1OC
Task item: Ascending by ΔTm, please: list the compounds accordingly. Answer with the labels in sequence, matching the requested order.
Reply: B, D, C, A
(B: 0.5 °C, D: 3.3 °C, C: 7.9 °C, A: 11.3 °C)

[I] COc1cc2ncnc(N(C)c3cccc(F)c3)c2cc1OC
[II] COc1cc2ncnc(Nc3cc(Br)ccc3Br)c2cc1OC
Task item: Which record would sort first by descending ΔTm, I or II ? Provide the label of your selected option as the answer.
Reply: I
(I: 9.8 °C, II: 0.5 °C)

[A] COc1cc2ncnc(N(C)c3ccc(Br)cc3)c2cc1OC
[B] COc1cc2ncnc(Oc3cccc(NC(=O)Nc4ccccc4)c3)c2cc1OC
Task item: Quick one: lower ΔTm, A or B ? Returns: label corresponding to the selected item.
Reply: B
(B: 0.5 °C, A: 10.8 °C)

[P] COc1cc2ncnc(N(C)c3ccc(C)c(Br)c3)c2cc1OC
[Q] COc1cc2ncnc(N(C)c3cccc(NC(=O)Nc4ccccc4)c3)c2cc1OC
[R] CCCCNC(=O)Nc1ccc(N(C)c2ncnc3cc(OC)c(OC)cc23)cc1
Task item: Sort by ΔTm, descending. Response format: the labels, sorted as the prompt asks.
Reply: P, Q, R
(P: 15 °C, Q: 9.9 °C, R: 0.4 °C)

[I] COc1cc2ncnc(N(C)c3ccc(C)c(C(F)(F)F)c3)c2cc1OC
[II] Fc1cc(Br)ccc1Nc1ncnc2cc3c(cc12)OCO3
Task item: Larger number for ΔTm: I , or II ? Refer to your chosen entry by its label in the reply.
Reply: I
